# Test system: Vero
# METHOD NOTES: Cytotoxicity against african green monkey Vero cells up to 100 uM after 24 hrs by MTT assay
# Assay type: cell-based
# RECORDED CONDITIONS: chlorocebus sabaeus
METRIC: Activity

{"columns": ["STRUCTURE SMILES STRING", "MEAS VALUE"],
 "data": [
  ["Cc1ccc2c(c1)/C(=N/Nc1nc(-c3ccc(Cl)cc3)cs1)CC2", "Non-toxic"],
  ["Cc1ccc(-c2csc(N/N=C3\\CCc4ccccc43)n2)cc1", "Non-toxic"],
  ["c1ccc(-c2csc(N/N=C3\\CCc4ccccc43)n2)cc1", "Non-toxic"],
  ["Clc1ccc(-c2csc(N/N=C3\\CCc4ccccc43)n2)cc1", "Non-toxic"]
]}

Q: Enter measured Activity, system Vero, for the compound shown: Cc1cccc2c1CC/C2=N\Nc1nc(-c2ccc(Cl)cc2)cs1
Result: Non-toxic

Q: Please respond with reported Activity (system Vero) for COc1cc2c(cc1OC)/C(=N/Nc1nc(-c3ccc(Cl)cc3)cs1)CC2 .
Result: Non-toxic

* * *

# MEASURED ON: UniProt:P25779
# Sequence (P25779 123-467 limits assumed): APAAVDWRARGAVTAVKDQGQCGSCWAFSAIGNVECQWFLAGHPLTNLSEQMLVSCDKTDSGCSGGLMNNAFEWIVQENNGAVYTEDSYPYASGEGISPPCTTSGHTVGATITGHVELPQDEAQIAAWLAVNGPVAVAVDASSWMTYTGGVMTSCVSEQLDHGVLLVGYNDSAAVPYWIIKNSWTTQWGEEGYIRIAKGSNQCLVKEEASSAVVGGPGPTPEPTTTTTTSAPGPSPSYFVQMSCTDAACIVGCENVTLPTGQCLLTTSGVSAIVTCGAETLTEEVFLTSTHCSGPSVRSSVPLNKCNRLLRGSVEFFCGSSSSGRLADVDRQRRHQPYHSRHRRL
# METHOD NOTES: Inhibition of epimastigotes of Trypanosoma cruzi cruzipain using Bz-Pro-Phe-Arg-pNA as substrate at 50 uM by spectrophotometric analysis
METRIC: inhibition (%)
Answer with a number only, understood to be in %.

// below: answered compounds
{"columns": ["STRUCTURE SMILES STRING", "inhibition / %"],
 "data": [
  ["Cc1cccc2c1CC/C2=N\\Nc1nc(-c2ccc(Cl)cc2)cs1", 3],
  ["Cc1ccc2c(c1)/C(=N/Nc1nc(-c3ccccc3)cs1)CC2", 0],
  ["Cc1ccc(-c2csc(N/N=C3\\CCc4ccc(C)cc43)n2)cc1", 0],
  ["COc1cccc2c1CC/C2=N\\Nc1nc(-c2ccc(Cl)cc2)cs1", 0],
  ["Cc1ccc(-c2csc(N/N=C3\\CCc4c(C)cccc43)n2)cc1", 0]
]}

Q: Supply inhibition value. Item: Cc1ccc(-c2csc(N/N=C3\CCc4cc(C)ccc43)n2)cc1
Result: 0

Q: Please supply the value of reported inhibition for the item Cc1cccc2c1CC/C2=N\Nc1nc(-c2ccccc2)cs1
Result: 0

Q: For the compound Cc1ccc(-c2csc(N/N=C3\CCc4ccccc43)n2)cc1 , give its measured inhibition value.
Result: 5

Q: Indicate the recorded inhibition value for this compound: COc1cc2c(cc1OC)/C(=N/Nc1nc(-c3ccc(C)cc3)cs1)CC2
Result: 0

* * *

# Test system: Trypanosoma cruzi
# METHOD NOTES: Trypanocidal activity against epimastigotes of Trypanosoma cruzi Tulahuen 2 assessed as inhibition of parasite growth after 4 days by trypan blue staining
# Format: functional, organism-based
# RECORDED CONDITIONS: Tulahuen 2, 96 h
METRIC: pIC50
Reminder that pIC50 means the negative base-10 logarithm of the concentration expressed in mol/L.

Solved cases below.
{"columns": ["COMPOUND", "MEASURED ON", "pIC50"],
 "data": [
  ["Clc1ccc(-c2csc(N/N=C3\\CCc4ccccc43)n2)cc1", "Trypanosoma cruzi", 5.06],
  ["O=[N+]([O-])c1cccc2c1CC/C2=N\\Nc1nc(-c2ccc(Cl)cc2)cs1", "Trypanosoma cruzi", 4.77],
  ["O=C(Cn1ccnc1[N+](=O)[O-])NCc1ccccc1 [BENZNIDAZOLE]", "Trypanosoma cruzi", 5.27]
]}

// below: pIC50 requested for another compound
Q: Write down pIC50 measured for item Cc1ccc2c(c1)CC/C2=N\Nc1nc(-c2ccc(Cl)cc2)cs1
Result: 5.15
